- Test system: Mus musculus
- assay protocol: Ethanol potentiation activity was measured as loss of righting reflex in male CF-1 mice after oral administration
- Format: functional
This section presents molecules with their documented ED50 values.

Before answering, review these 4 worked examples.
>  <molecular string>
CCN(CC)C(=O)N1Cc2c(-c3noc(C4CC4)n3)ncn2-c2ccccc21

>  <ED50>
> 30 mg/kg

$$$$
>  <molecular string>
CN1C(=O)CN=C(c2ccccc2)c2cc(Cl)ccc21

>  <ED50>
0.86 mg/kg

$$$$
>  <molecular string>
CN(C)C(=O)N1Cc2c(-c3noc(C4CC4)n3)ncn2-c2cccc(F)c21

>  <ED50>
> 30 mg/kg

$$$$
>  <molecular string>
CN(C)C(=O)N1Cc2c(-c3noc(C4CC4)n3)ncn2-c2ccccc21

>  <ED50>
> 30 mg/kg

$$$$

Q: I have this molecule here, `O=C(N1CCOCC1)N1Cc2c(-c3noc(C4CC4)n3)ncn2-c2ccc(F)cc21` , and I need its recorded ED50.
A: > 30 mg/kg

Q: Again, but for `CSC(=O)N1Cc2c(-c3noc(C4CC4)n3)ncn2-c2ccccc21`
A: > 30 mg/kg

Q: Again, but for `CCNC(=O)N1Cc2c(-c3noc(C4CC4)n3)ncn2-c2ccccc21`
A: > 30 mg/kg

---

- study system: GABA-A receptor; anion channel
- assay protocol: Inhibition of [3H]flunitrazepam binding to GABA-A receptor of rat cortical membranes
pKi: −log10 of the molar value.
Please enter 1 where pKi is greater than or equal to 8, and -1 where it is lower.

>  <molecular string>
CSC(=O)N1c2ccccc2-n2cnc(-c3noc(C4CC4)n3)c2C1(C)C

>  <class label>
1

$$$$
>  <molecular string>
O=C(c1ccc[nH]1)N1Cc2c(-c3noc(C4CC4)n3)ncn2-c2ccccc21

>  <class label>
1

$$$$
>  <molecular string>
CNC(=O)N1Cc2c(-c3noc(C4CC4)n3)ncn2-c2ccccc21

>  <class label>
1

$$$$
>  <molecular string>
CSC(=O)N1Cc2c(-c3noc(C4CC4)n3)ncn2-c2ccccc21

>  <class label>
1

$$$$
>  <molecular string>
O=C(N1CCCC1)N1Cc2c(-c3noc(C4CC4)n3)ncn2-c2ccc(F)cc21

>  <class label>
1

$$$$
>  <molecular string>
CN(C)C(=O)N1Cc2c(-c3noc(C4CC4)n3)ncn2-c2ccc(Cl)cc21

>  <class label>
1

$$$$

Q: Hi, just wondering whether `CN(C)C(=O)N1Cc2c(-c3noc(C4CC4)n3)ncn2-c2cccc(F)c21` shows pKi of 8 or higher.
A: 1

Q: Again, but for `O=C(N1CCCC1)N1Cc2c(-c3noc(C4CC4)n3)ncn2-c2cccc(F)c21`
A: 1

Q: Again, but for `O=C(N1CCCC1)N1Cc2c(-c3noc(C4CC4)n3)ncn2-c2ccc(Cl)cc21`
A: 1

Q: Again, but for `CNC(=O)N1c2ccccc2-n2cnc(-c3noc(C4CC4)n3)c2C1(C)C`
A: -1

Q: Again, but for `O=C(N1Cc2c(-c3noc(C4CC4)n3)ncn2-c2ccccc21)C(F)(F)F`
A: -1

Q: Again, but for `CCSC(=O)N1Cc2c(-c3noc(C4CC4)n3)ncn2-c2ccccc21`
A: 1

---

- study system: GABA A receptor alpha-3/beta-2/gamma-2 (Homo sapiens, UniProt P18507+P34903+P47870)
- Sequence (P47870 whole entry): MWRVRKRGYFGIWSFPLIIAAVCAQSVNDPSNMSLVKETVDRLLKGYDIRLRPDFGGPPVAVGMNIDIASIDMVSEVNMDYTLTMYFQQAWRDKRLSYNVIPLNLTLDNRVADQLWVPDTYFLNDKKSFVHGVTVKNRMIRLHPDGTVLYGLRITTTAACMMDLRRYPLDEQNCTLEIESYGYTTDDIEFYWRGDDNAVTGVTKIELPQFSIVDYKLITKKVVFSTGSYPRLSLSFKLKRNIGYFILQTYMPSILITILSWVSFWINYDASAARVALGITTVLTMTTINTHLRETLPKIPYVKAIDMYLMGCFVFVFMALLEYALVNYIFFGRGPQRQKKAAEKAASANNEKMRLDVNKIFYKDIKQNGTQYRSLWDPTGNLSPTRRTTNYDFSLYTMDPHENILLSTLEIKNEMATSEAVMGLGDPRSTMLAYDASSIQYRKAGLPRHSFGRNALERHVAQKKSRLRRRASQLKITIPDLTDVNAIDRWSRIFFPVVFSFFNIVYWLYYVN
- Sequence (P18507 whole entry): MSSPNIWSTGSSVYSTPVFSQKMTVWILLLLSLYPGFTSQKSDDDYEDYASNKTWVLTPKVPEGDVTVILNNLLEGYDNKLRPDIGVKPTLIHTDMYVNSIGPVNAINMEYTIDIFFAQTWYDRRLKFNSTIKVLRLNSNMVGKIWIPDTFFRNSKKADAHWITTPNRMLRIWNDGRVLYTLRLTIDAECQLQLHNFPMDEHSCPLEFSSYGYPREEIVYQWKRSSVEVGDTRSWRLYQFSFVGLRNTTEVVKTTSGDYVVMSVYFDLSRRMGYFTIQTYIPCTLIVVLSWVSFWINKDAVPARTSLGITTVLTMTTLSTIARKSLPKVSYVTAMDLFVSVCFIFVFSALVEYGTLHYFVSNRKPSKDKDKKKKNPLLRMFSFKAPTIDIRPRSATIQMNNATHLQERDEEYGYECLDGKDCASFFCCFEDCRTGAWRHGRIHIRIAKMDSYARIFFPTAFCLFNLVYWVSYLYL
- Sequence (P34903 whole entry): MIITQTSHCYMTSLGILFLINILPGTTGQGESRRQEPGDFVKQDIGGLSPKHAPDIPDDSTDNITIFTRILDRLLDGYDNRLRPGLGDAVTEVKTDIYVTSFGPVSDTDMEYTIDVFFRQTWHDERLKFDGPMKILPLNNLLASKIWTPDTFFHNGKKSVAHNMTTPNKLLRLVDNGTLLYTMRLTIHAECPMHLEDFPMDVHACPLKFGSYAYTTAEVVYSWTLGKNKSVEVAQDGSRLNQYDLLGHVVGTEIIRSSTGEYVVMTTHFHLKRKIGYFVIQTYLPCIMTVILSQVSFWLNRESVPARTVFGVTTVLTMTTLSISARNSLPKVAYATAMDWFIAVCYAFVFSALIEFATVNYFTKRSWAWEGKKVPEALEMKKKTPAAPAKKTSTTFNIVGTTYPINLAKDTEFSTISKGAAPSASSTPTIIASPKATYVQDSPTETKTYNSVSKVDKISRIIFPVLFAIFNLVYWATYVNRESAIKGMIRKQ
- assay protocol: Displacement of [3H]flunitrazepam from GABA-A receptor alpha-3-beta-2-gamma-2 subunits expressed in Sf9 cells
observed property: Ki (nM)
The answer is to be given in nM; state only the numeric part.

Q: I have this compound here, `CCNC(=O)N1Cc2c(-c3noc(C4CC4)n3)ncn2-c2ccccc21` , and I need its recorded Ki.
A: 15

Q: Again, but for CN(C)C(=O)N1Cc2c(-c3noc(C4CC4)n3)ncn2-c2ccccc21 [PNU-91571]
A: 3.5
